Target: AT2 receptor of angiotensin II (Oryctolagus cuniculus)
Sequence (G1T351 1-363): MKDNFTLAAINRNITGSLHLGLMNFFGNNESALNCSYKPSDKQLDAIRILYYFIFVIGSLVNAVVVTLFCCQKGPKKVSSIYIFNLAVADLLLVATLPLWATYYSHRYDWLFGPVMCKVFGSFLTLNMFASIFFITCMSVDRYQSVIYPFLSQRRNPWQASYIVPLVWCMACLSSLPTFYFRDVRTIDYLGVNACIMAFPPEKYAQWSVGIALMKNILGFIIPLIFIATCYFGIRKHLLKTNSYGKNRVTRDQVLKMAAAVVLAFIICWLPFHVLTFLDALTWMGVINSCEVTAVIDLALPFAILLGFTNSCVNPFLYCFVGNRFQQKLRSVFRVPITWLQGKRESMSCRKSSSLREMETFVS
TEST_READOUT: IC50 (nM)
Note: unit nM is implicit; provide only the numeric part.

COMPOUND | TEST_TARGET | IC50 (nM)
CCCc1nc(SC)c(C(=O)Nc2nn[nH]n2)n1Cc1ccc(-c2ccccc2S(=O)(=O)NC(=O)NCc2ccccc2)cc1 | AT2 receptor of angiotensin II (Oryctolagus cuniculus) | 2
CCCc1nc(SC)c(C(=O)C[S+]([O-])c2ccccc2)n1Cc1ccc(-c2ccccc2S(=O)(=O)NC(=O)NCc2ccccc2)cc1 (stereo not shown) | AT2 receptor of angiotensin II (Oryctolagus cuniculus) | 0.8
CCCCc1nc(SC)c(C(=O)C(=O)O)n1Cc1ccc(-c2ccccc2S(=O)(=O)NC(=O)NCC2CCCCC2)cc1 | AT2 receptor of angiotensin II (Oryctolagus cuniculus) | 6.8

Any idea what IC50 was measured for CCCc1nc(SC)c(C(=O)C[S+]([O-])c2ccccc2)n1Cc1ccc(-c2ccccc2S(=O)(=O)NC(=O)NCC2CCCC2)cc1 (racemic) ?
2.5

---

target: AT1 receptor of angiotensin II (Rattus norvegicus); construct: A fresh membrane preparation obtained from rat's liver is used; from tissue; host or cells: rat liver membranes; assay: Test on the AT1 receptor of angiotensin II (displacement of 125I angiotensin II, rat liver membranes); assay type: binding; details: 25° C., 150 minutes, pH 7.4
Sequence (P25095 whole entry): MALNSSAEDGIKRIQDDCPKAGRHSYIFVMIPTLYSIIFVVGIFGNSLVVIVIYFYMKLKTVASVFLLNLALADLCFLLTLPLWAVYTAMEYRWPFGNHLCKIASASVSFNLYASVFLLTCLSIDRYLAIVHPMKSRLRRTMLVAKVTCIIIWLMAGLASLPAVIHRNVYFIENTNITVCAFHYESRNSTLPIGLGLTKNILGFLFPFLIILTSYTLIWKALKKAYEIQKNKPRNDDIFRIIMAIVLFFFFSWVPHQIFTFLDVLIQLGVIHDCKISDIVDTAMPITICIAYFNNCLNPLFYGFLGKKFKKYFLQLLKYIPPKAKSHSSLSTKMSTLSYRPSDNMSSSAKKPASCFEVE
Readings of IC50 for the listed compounds
Note: unit nM is implicit; provide only the numeric part.

These recorded examples may help you get a feel for the data.
COMPOUND | IC50, nM
CCCc1nc(SC)c(C(=O)C[S+]([O-])c2ccccc2)n1Cc1ccc(-c2ccccc2S(=O)(=O)NC(=O)NCc2cccs2)cc1 (centres unmarked) | 0.05
CCCc1nc(SC)c(C(=O)C[S+]([O-])c2ccccc2)n1Cc1ccc(-c2ccccc2S(=O)(=O)NC(=O)CCC2CCCC2)cc1 (racemic) | 0.09
CCCCc1nc(SC)c(C(=O)C(=O)O)n1Cc1ccc(-c2ccccc2S(=O)(=O)NC(=O)NCC2CCCCC2)cc1 | 0.7
CCCCc1nc(SC)c(C(=O)CC(=O)OCC)n1Cc1ccc(-c2ccccc2S(=O)(=O)NC(=O)NCCC)cc1 | 0.2

Next:
Missing value: IC50, AT1 receptor of angiotensin II (Rattus norvegicus), entry CCCCc1nc(SC)c(C(=O)CC(=O)OCC)n1Cc1ccc(-c2ccccc2S(=O)(=O)NC(=O)NCc2ccccc2)cc1 . Fill in?
0.08
